System: IL-1β
Assay: PBMC assay: inhibition of IL-1β release after LPS stimulation (MSD)
Assay type: cell-based
Details: Homo sapiens, PBMC, 6 h, human PBMCs, 100 ng/ml LPS for 6 hrs, MSD, 96 well plates; read-out: IL1β IC50
ENDPOINT: IC50 (nM)

COMPOUND: CC(C)c1nn(CC(=O)Nc2ccc3nnn(C)c3c2)c(=O)c2ccc(C(F)(F)F)cc12 [Final Cpd X49]
ASSAY_TARGET: IL-1β
ENDPOINT: IC50
VALUE_QUALIFIER: =
RESULT_NUMBER: 400
//
COMPOUND: CC(C)c1nn(CC(=O)NC2CC(C(F)(F)F)C2)c(=O)c2ccc(C(F)(F)F)cc12 (stereo not shown) [Final Cpd X77]
ASSAY_TARGET: IL-1β
ENDPOINT: IC50
VALUE_QUALIFIER: =
RESULT_NUMBER: 830
//
COMPOUND: CC(C)c1nn(CC(=O)Nc2ccnnc2)c(=O)c2ccc(C(F)(F)C(F)(F)F)cc12 [X-1053]
ASSAY_TARGET: IL-1β
ENDPOINT: IC50
VALUE_QUALIFIER: =
RESULT_NUMBER: 3180
//
COMPOUND: COCCn1nc(NC(=O)Cn2nc(C(C)C)c3cc(C(F)(F)F)ccc3c2=O)ccc1=O [Final Cpd X62]
ASSAY_TARGET: IL-1β
ENDPOINT: IC50
VALUE_QUALIFIER: =
RESULT_NUMBER: 591
//
COMPOUND: CCc1nn(CC(=O)Nc2ccncn2)c(=O)c2ccc(C(C)C)cc12 [Final Cpd 6]
ASSAY_TARGET: IL-1β
ENDPOINT: IC50
VALUE_QUALIFIER: =
RESULT_NUMBER: 450
//
COMPOUND: CO[C@]1(C)C[C@H](NC(=O)Cn2nc(C(C)C)c3cc(Br)ccc3c2=O)C1 [X-1088]
ASSAY_TARGET: IL-1β
ENDPOINT: IC50
VALUE_QUALIFIER: =
RESULT_NUMBER: 196
//
COMPOUND: CC(C)c1nn(CC(=O)Nc2ccnnc2)c(=O)c2ccc(C(C)(F)F)cc12 [X-1064]
ASSAY_TARGET: IL-1β
ENDPOINT: IC50
VALUE_QUALIFIER: =
RESULT_NUMBER: 533
//
COMPOUND: CCN1CCC[C@H](NC(=O)Cn2nc(C(C)C)c3cc(C(F)(F)F)ccc3c2=O)C1=O (single isomer, unassigned) [Final Cpd X129]
ASSAY_TARGET: IL-1β
ENDPOINT: IC50
VALUE_QUALIFIER: =
RESULT_NUMBER: 3070
//
COMPOUND: CC(C)c1nn(CC(=O)N[C@H]2C[C@@H](O)CN(C)C2)c(=O)c2ccc(C(F)(F)F)cc12 [Final Cpd X122]
ASSAY_TARGET: IL-1β
ENDPOINT: IC50
VALUE_QUALIFIER: =
RESULT_NUMBER: 2680
//
COMPOUND: CC(C)(F)c1nn(CC(=O)Nc2ccncn2)c(=O)c2ccc(C(F)(F)F)cc12 [Final Cpd X180]
ASSAY_TARGET: IL-1β
ENDPOINT: IC50
VALUE_QUALIFIER: >
RESULT_NUMBER: 20000
//
COMPOUND: CC(C)c1nn(CC(=O)Nc2ccc3c(C#N)ncn3c2)c(=O)c2ccc(C(F)(F)F)cc12 [Final Cpd X88]
ASSAY_TARGET: IL-1β
ENDPOINT: IC50
VALUE_QUALIFIER: =
RESULT_NUMBER: 924
//
COMPOUND: CC(C)c1nn(CC(=O)N[C@H]2C[C@@](C)(O)C2)c(=O)c2ccc(Br)cc12 [Final Cpd 37]
ASSAY_TARGET: IL-1β
ENDPOINT: IC50
VALUE_QUALIFIER: <
RESULT_NUMBER: 25
//
COMPOUND: CC(C)c1nn(CC(=O)N[C@H]2C[C@@](C)(O)C2)c(=O)c2ccc(C(F)(F)F)cc12 [Final Cpd 25]
ASSAY_TARGET: IL-1β
ENDPOINT: IC50
VALUE_QUALIFIER: =
RESULT_NUMBER: 58
//
COMPOUND: CC(C)Cc1nn(CC(=O)Nc2ccc3nncn3c2)c(=O)c2ccc(C(F)(F)F)cc12 [Final Cpd X144]
ASSAY_TARGET: IL-1β
ENDPOINT: IC50
VALUE_QUALIFIER: =
RESULT_NUMBER: 4940
//
COMPOUND: CC(C)c1nn(CC(=O)N[C@H]2CC[C@H](O)CC2)c(=O)c2ccc(C(F)(F)F)cc12 [Final Cpd X44]
ASSAY_TARGET: IL-1β
ENDPOINT: IC50
VALUE_QUALIFIER: =
RESULT_NUMBER: 374
//
COMPOUND: CC(C)c1nn(CC(=O)Nc2ccc3nc[nH]c3n2)c(=O)c2ccc(C(F)(F)F)cc12 [Final Cpd X13]
ASSAY_TARGET: IL-1β
ENDPOINT: IC50
VALUE_QUALIFIER: =
RESULT_NUMBER: 114
//
COMPOUND: CC(C)c1nn(CC(=O)N[C@H]2C[C@@](C)(O)C2)c(=O)c2ccc(Cl)cc12 [X-1027]
ASSAY_TARGET: IL-1β
ENDPOINT: IC50
VALUE_QUALIFIER: =
RESULT_NUMBER: 60
//
COMPOUND: CCc1nn(CC(=O)Nc2c(-c3ccnc(OC)c3)ccc3c2CCC3)c(=O)c2ccc(Br)cc12 [X-1013]
ASSAY_TARGET: IL-1β
ENDPOINT: IC50
VALUE_QUALIFIER: >
RESULT_NUMBER: 20000
//
COMPOUND: CC(C)c1nn(CC(=O)N[C@@H]2CC[C@@H]2O)c(=O)c2ccc(C(F)(F)F)cc12 [Final Cpd X95]
ASSAY_TARGET: IL-1β
ENDPOINT: IC50
VALUE_QUALIFIER: =
RESULT_NUMBER: 1100

Just for reference, patent US20230202989A1 is where these values come from.
